Source of measurements: patent US11485742B2

Emax listing for selected molecules.
target: human cloned CHRM4 receptor (Homo sapiens); construct: expressed in transfected cells; host or cells: CHO-K1 (M4_CHO); experiment: CHRM4 Ca++ Flux Assay (M4_CHO cells, agonist mode); assay type: cell-based; settings: Percent Activity (PA), read-out: M4 FDSS PA %
Sequence (P08173 whole entry): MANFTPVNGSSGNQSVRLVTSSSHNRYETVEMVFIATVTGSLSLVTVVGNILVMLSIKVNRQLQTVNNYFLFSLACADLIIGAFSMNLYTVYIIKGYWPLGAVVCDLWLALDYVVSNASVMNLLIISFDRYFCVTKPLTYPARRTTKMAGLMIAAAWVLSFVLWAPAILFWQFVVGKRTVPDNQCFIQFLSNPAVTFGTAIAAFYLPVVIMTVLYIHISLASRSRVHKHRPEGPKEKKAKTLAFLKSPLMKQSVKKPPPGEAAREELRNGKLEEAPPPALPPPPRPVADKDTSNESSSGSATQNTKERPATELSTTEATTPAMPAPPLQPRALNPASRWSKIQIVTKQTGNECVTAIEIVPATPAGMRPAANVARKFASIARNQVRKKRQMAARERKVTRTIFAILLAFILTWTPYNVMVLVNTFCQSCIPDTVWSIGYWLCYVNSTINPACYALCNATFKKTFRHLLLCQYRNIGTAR
The reply should be a number in %, with the unit left off.

Fc1cc(O[C@@H]2CCOC2)c(C2CCN([C@@H]3COC4(C3)CN(c3nncs3)C4)CC2)cc1F	73
Cc1nnc(COc2ccc(F)cc2C2CCN([C@@H]3COC4(C3)CN(c3nnco3)C4)CC2)o1	90
CC(C)(O)COc1ccccc1C1CCN([C@@H]2COC3(C2)CN(c2ncns2)C3)CC1	64
COc1ccc(F)cc1C1CCN([C@@H]2COC3(C2)CN(c2ncco2)C3)CC1	73
Fc1ccc(OC2CC3(COC3)C2)c(C2CCN([C@@H]3COC4(C3)CN(c3nncs3)C4)CC2)c1	85
c1ccc(C2CCN([C@@H]3COC4(C3)CN(c3nnco3)C4)CC2)c(-c2cncnc2)c1	89
Fc1ccc(OCC2CC3(COC3)C2)c(C2CCN([C@@H]3COC4(C3)CN(c3nnco3)C4)CC2)c1	68
Fc1ccc(OCC2CCOCC2)c(C2CCN([C@@H]3COC4(C3)CN(c3nnco3)C4)CC2)c1	79

Okay, now this molecule:
Form field - read-out: Emax; system: human cloned CHRM4 receptor (Homo sapiens); submitted item: Fc1cc(F)c(OC2CCOCC2)c(C2CCN([C@@H]3COC4(C3)CN(c3nnco3)C4)CC2)c1
91
